Provenance of the data: patent US10765655B2

# Tested on: IL-4 mRNA
# ASSAY METHOD TEXT: Inhibition of PMA-induced IL-4 mRNA expression in EL-4 cells (PCR)
# Assay type: cell-based, mouse
# CONDITION SUMMARY: 20 μg/mL, PMA 1 ng/mL, vs PMA-treated group
ENDPOINT LABEL: Inhibition (%) of IL-4 mRNA expression
The figure you give is taken to be in %; do not add the unit.

What value of Inhibition (%) of IL-4 mRNA expression has been recorded for this entry: CCCCC/C=C\C/C=C\CCCCCCCC(=O)OC(COC(C)=O)COC(=O)CCCCCCCCCCCCCCC (stereo not drawn)
21.83

Try this compound next: CCCCCCCCCCCCCCCC(=O)OCC(COC(C)=O)OC(=O)CCCCCCCCCCCCCCC (stereo not drawn)
51.38

Try this compound next: CCCCCCCC/C=C\CCCCCCCC(=O)OCC(COC(C)=O)OC(=O)CCCCCCCCCCCCCCCCC (stereo not drawn)
44.16

Try this compound next: CCCCCCCC/C=C\CCCCCCCC(=O)OCC(COC(C)=O)OC(=O)CCCCCCCCCCCCCCC (stereo not drawn)
41.42

Try this compound next: CCCCCCCC/C=C\CCCCCCCC(=O)OC(COC(C)=O)COC(=O)CCCCCCCCCCCCCCC (stereo not drawn)
24.53

Try this compound next: CCCCCCCCCCCCCCCCCC(=O)OC(COC(C)=O)COC(=O)CCCCCCCCCCCCCCC (stereo not drawn)
29.51
